Provenance of the data: patent US20250179103A1

Biological target: Recombinant STAT3 protein (STAT3(G127-I722)) (Homo sapiens, UniProt P40763)
Construct: Recombinant STAT3 protein (STAT3(G127-I722))
Sequence (P40763 127-722): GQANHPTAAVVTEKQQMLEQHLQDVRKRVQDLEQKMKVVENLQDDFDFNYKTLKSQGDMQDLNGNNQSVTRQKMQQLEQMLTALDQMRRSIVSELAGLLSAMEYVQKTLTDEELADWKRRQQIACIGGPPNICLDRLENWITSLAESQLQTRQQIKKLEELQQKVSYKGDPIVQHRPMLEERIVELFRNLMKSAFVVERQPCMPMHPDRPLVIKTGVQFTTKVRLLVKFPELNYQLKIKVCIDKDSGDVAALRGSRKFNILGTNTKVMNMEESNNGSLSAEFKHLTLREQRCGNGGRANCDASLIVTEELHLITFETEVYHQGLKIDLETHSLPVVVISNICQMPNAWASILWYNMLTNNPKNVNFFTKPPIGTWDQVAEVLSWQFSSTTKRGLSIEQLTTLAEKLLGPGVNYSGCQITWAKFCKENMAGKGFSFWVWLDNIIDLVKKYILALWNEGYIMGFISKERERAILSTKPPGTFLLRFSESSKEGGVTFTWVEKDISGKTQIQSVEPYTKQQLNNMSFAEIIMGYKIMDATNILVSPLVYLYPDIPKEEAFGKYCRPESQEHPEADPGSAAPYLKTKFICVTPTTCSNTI
Test: STAT3 Fluorescence Polarization (FP) Assay
Conditions: STAT3(G127-I722) 25 nM, probe 5-FAM-GpYLPQTV-NH2 2 nM, 45-minute incubation
MEASURE NAME: IC50

>  <MOLECULE>
CC(=O)N1CC[C@H]2CC[C@@H](C(=O)N3CC4CCS(=O)(=O)CC4C3)N2C(=O)[C@@H](NC(=O)c2cc3cc(C(F)(F)P(=O)(O)O)ccc3s2)C1 (stereo partly drawn)

>  <REPORTED MEASUREMENT>
100 to 1000 nM

$$$$
>  <MOLECULE>
CC(=O)N1CC[C@H]2CC[C@@H](C(=O)N3CCC(C(N)=O)c4cc(-c5ccccc5)ccc43)N2C(=O)[C@@H](NC(=O)c2cc3cc(C(F)(F)P(=O)(O)O)ccc3s2)C1 (stereo partly drawn)

>  <REPORTED MEASUREMENT>
100 to 1000 nM

$$$$
>  <MOLECULE>
COc1cc(C(=O)N[C@H]2CN(C(=O)c3noc4ccc(C)cc34)CC[C@H]3CC[C@@H](C(=O)N4CCOCC4)N3C2=O)cc2cc(CP(=O)(O)O)ccc12

>  <REPORTED MEASUREMENT>
> 10000 nM

$$$$

* * *

Molecular target: Recombinant STAT3 protein (STAT3(G127-I722)) (Homo sapiens)
Construct: Recombinant STAT3 protein (STAT3(G127-I722))
Assay: STAT3 Fluorescence Polarization (FP) Assay
Format: binding
Conditions: STAT3(G127-I722) 25 nM, probe 5-FAM-GpYLPQTV-NH2 2 nM, 45-minute incubation
pIC50: −log10 of the molar value.
MEASURE NAME: pIC50

>  <COMPOUND>
CC(=O)N1CC[C@H]2CC[C@@H](C(=O)N(C)C3CCCCC3)N2C(=O)[C@@H](NC(=O)c2cc3cc(C(F)(F)P(=O)(O)O)ccc3[nH]2)C1

>  <REPORTED MEASUREMENT>
5.00 to 6.00

$$$$
>  <COMPOUND>
CC(=O)N1CC[C@H]2CC[C@@H](C(=O)N3CCC(Oc4ccncc4)C3)N2C(=O)[C@@H](NC(=O)c2cc3cc(C(F)(F)P(=O)(O)O)ccc3s2)C1 (some centres unmarked)

>  <REPORTED MEASUREMENT>
6.00 to 7.00

$$$$
>  <COMPOUND>
CC(=O)N1CC[C@H]2CC[C@@H](C(=O)N3CCN(C4CC4)C(C#N)C3)N2C(=O)[C@@H](NC(=O)c2cc3cc(C(F)(F)P(=O)(O)O)ccc3s2)C1 (some centres unmarked)

>  <REPORTED MEASUREMENT>
5.00 to 6.00

$$$$
>  <COMPOUND>
CCOc1ccc(N(C)C(=O)[C@@H]2CC[C@@H]3CCN(C(C)=O)C[C@H](NC(=O)c4cc5cc(C(F)(F)P(=O)(O)O)ccc5[nH]4)C(=O)N32)cc1

>  <REPORTED MEASUREMENT>
5.00 to 6.00

$$$$
>  <COMPOUND>
CC(=O)N1CC[C@H]2CC[C@@H](C(=O)N3CC(C#N)C4(C3)C(=O)Nc3ccccc34)N2C(=O)[C@@H](NC(=O)c2cc3cc(C(F)(F)P(=O)(O)O)ccc3s2)C1 (some centres unmarked)

>  <REPORTED MEASUREMENT>
6.00 to 7.00

$$$$
